- Target Or System: MC4R (Homo sapiens, UniProt P32245)
- Construct: expressed in transfected cells; host or cells: HEK (Human Embryonic Kidney) permanent expression cell line HEK MC4R-Luc, co-expressing CRE-luciferase
- Sequence (P32245 whole entry, species assumed): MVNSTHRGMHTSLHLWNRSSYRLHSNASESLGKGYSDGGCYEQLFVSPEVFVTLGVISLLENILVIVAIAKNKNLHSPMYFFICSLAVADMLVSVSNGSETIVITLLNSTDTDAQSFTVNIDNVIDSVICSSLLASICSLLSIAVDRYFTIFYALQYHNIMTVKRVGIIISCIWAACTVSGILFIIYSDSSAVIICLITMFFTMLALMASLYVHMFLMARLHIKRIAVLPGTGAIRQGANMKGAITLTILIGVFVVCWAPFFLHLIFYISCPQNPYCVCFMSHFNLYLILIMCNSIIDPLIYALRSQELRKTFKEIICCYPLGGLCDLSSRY
- Assay Info: MCR agonistic activity (luciferase assay / cAMP accumulation assay) on MC4R
- Format: cell-based
- Protocol Conditions: HEK cell lines expressing MC4R; method A (CRE-luciferase) or B (cAMP accumulation), not said which; read-out: EC50 value, agonistic activity to MC4R (range per group of Examples)
List of EC50 values.

Query: Quick check: EC50 on MC4R (Homo sapiens, UniProt P32245), item "CN1CCN(C(=O)[C@H]2C[C@H](N(C(=O)C(C)(C)C)[C@H]3CC[C@@H](C)CC3)CN2C(=O)[C@@H]2CN(C(C)(C)C)C[C@H]2c2ccc(F)cc2F)CC1" ?
Result: 10 to 100 nM

Query: Also check "CCN1CCN(C(=O)[C@@H]2C[C@H](N(C(=O)[C@@H]3CCCO3)C3CCC(C)(C)CC3)CN2C(=O)[C@@H]2CN(C(C)(C)C)C[C@H]2c2ccc(Cl)cc2)CC1"
Result: 0.1 to 10 nM

Query: Then what about the compound "CC(C)(C)C(=O)N(c1ccc(F)cc1F)[C@H]1C[C@@H](C(=O)N2CCNCC2)N(C(=O)[C@@H]2CN(C(C)(C)C)C[C@H]2c2ccc(Cl)cc2)C1" ?
Result: 0.1 to 10 nM

Query: Record: "CN1CCN(C(=O)[C@@H]2C[C@H](N(C(=O)[C@@H]3CCCO3)c3ccc(F)cc3F)CN2C(=O)[C@@H]2CN(C(C)(C)C)C[C@H]2c2ccc(Cl)cc2)CC1"
Result: 10 to 100 nM

Query: Same read-out for "CN1CCN(C(=O)[C@H]2C[C@H](N(C(=O)[C@@H]3CCCO3)C3CCC(C)(C)CC3)CN2C(=O)[C@@H]2CN(C(C)(C)C)C[C@H]2c2ccc(Cl)cc2)CC1" ?
Result: 0.1 to 10 nM

###

- Target Or System: MC4R (Homo sapiens)
- Construct: expressed in transfected cells; host or cells: HEK (Human Embryonic Kidney) permanent expression cell line HEK MC4R-Luc, co-expressing CRE-luciferase
- Assay Info: MCR agonistic activity (luciferase assay / cAMP accumulation assay) on MC4R
- Type: cell-based
- Protocol Conditions: specific activities of representative compounds; HEK cell lines expressing MC4R; method A or B, not said which; read-out: EC50
pEC50: −log10 of the molar value.
Observation Type: pEC50

P = CN1CCN(C(=O)[C@@H]2C[C@H](N(C(=O)[C@@H]3CCCO3)[C@H]3CC[C@@H](C)CC3)CN2C(=O)[C@@H]2CN(C(C)(C)C)C[C@H]2c2ccc(Cl)cc2)CC1
Q = CN1CCN(C(=O)[C@H]2C[C@H](N(C(=O)[C@@H]3CCCO3)C3CCC(C)(C)CC3)CN2C(=O)[C@@H]2CN(C(C)(C)C)C[C@H]2c2ccc(F)cc2F)CC1
R = Cc1ccc(N2C[C@@H](C(=O)N3C[C@@H](N(C(=O)[C@@H]4CCCO4)C4CCC(C)(C)CC4)C[C@H]3C(=O)N3CCN(C)CC3)[C@H](c3ccc(Cl)cc3)C2)nn1
Query: Take the compounds listed above and rank them by pEC50; the top slot goes to the highest value. Order the labels as requested and list them.
Result: P, Q, R

###

- Target Or System: MC4R (Homo sapiens)
- Construct: expressed in transfected cells; host or cells: HEK (Human Embryonic Kidney) permanent expression cell line HEK MC4R-Luc, co-expressing CRE-luciferase
- Assay Info: MCR agonistic activity (luciferase assay / cAMP accumulation assay) on MC4R
- Assay type: cell-based
- Protocol Conditions: HEK cell lines expressing MC4R; method A (CRE-luciferase) or B (cAMP accumulation), not said which; read-out: EC50 value, agonistic activity to MC4R (range per group of Examples)
Observation Type: EC50

- Compound: "CC(C)N1CCN(C(=O)[C@@H]2C[C@H](N(C(=O)[C@@H]3CCCO3)C3CCC(C)(C)CC3)CN2C(=O)[C@@H]2CN(C(C)(C)C)C[C@H]2c2ccc(Cl)cc2)CC1"
  Target Or System: "MC4R (Homo sapiens)"
  EC50: "0.1 to 10 nM"
- Compound: "CC(=O)N(C1CCC(C)CC1)[C@H]1C[C@H](C(=O)N2CCN(C)CC2)N(C(=O)[C@@H]2CN(C3CCOCC3)C[C@H]2c2ccc(Cl)cc2)C1 (some centres unmarked)"
  Target Or System: "MC4R (Homo sapiens)"
  EC50: "0.1 to 10 nM"
- Compound: "CC(=O)N(C1CCC(F)(F)CC1)[C@H]1C[C@@H](C(=O)N2CCN(C(C)C)CC2)N(C(=O)[C@@H]2CN(C(C)(C)C)C[C@H]2c2ccc(Cl)cc2)C1"
  Target Or System: "MC4R (Homo sapiens)"
  EC50: "100 to 1000 nM"
- Compound: "CN1CCN(C(=O)[C@@H]2C[C@H](N(C(=O)C(C)(C)CO)[C@H]3CC[C@@H](C)CC3)CN2C(=O)[C@@H]2CN(C3CC3)C[C@H]2c2ccc(F)cc2F)CC1"
  Target Or System: "MC4R (Homo sapiens)"
  EC50: "0.1 to 10 nM"
- Compound: "CN1CCN(C(=O)[C@@H]2C[C@H](N(C(=O)C(C)(C)CO)[C@H]3CC[C@@H](C)CC3)CN2C(=O)[C@@H]2CN(C3CC3)C[C@H]2c2ccc(Cl)cc2)CC1"
  Target Or System: "MC4R (Homo sapiens)"
  EC50: "0.1 to 10 nM"

Query: Consider the compound "CN1CCN(C(=O)[C@@H]2C[C@H](N(C(=O)C(C)(C)C)C3CCC(F)(F)CC3)CN2C(=O)[C@@H]2CN(C(C)(C)C)C[C@H]2c2ccc(F)cc2F)CC1" and give its measured EC50.
Result: 0.1 to 10 nM

Query: Consider next the compound "CN1CCN(C(=O)[C@@H]2C[C@H](N(C(=O)C(C)(C)CO)C3CCC(C)(C)CC3)CN2C(=O)[C@@H]2CN(C3CC3)C[C@H]2c2ccc(Cl)cc2)CC1" in the same way.
Result: 0.1 to 10 nM

Query: Now this one: "CN1CCN(C(=O)[C@@H]2C[C@H](N(C(=O)[C@@H]3CCCO3)C3CCC(C)(C)CC3)CN2C(=O)[C@@H]2CN(C3CC3)C[C@H]2c2ccc(Cl)cc2)CC1"
Result: 10 to 100 nM

Query: Please give the result for "CN1CCN(C(=O)[C@@H]2C[C@H](N(C(=O)C(C)(C)C)C3CCC(C)(C)CC3)CN2C(=O)[C@@H]2CN(c3ncccn3)C[C@H]2c2ccc(Cl)cc2)CC1" too.
Result: 1000 to 10000 nM

Query: Thanks! And "CN1CCN(C(=O)[C@@H]2C[C@H](N(C(=O)[C@@H]3CCCO3)[C@H]3CC[C@@H](C)CC3)CN2C(=O)[C@@H]2CN(c3ccc(=O)[nH]n3)C[C@H]2c2ccc(Cl)cc2)CC1" ?
Result: 0.1 to 10 nM

Query: Now this one: "CCN1CCN(C(=O)[C@@H]2C[C@H](N(C(=O)[C@@H]3CCCO3)[C@H]3CC[C@@H](C)CC3)CN2C(=O)[C@@H]2CN(C(C)(C)C)C[C@H]2c2ccc(Cl)cc2)CC1"
Result: 0.1 to 10 nM

###

- Target Or System: MC4R (Homo sapiens)
- Construct: expressed in transfected cells; host or cells: HEK (Human Embryonic Kidney) permanent expression cell line HEK MC4R-Luc, co-expressing CRE-luciferase
- Assay Info: MCR agonistic activity (luciferase assay / cAMP accumulation assay) on MC4R
- Type: cell-based
- Protocol Conditions: HEK cell lines expressing MC4R; method A (CRE-luciferase) or B (cAMP accumulation), not said which; read-out: EC50 value, agonistic activity to MC4R (range per group of Examples)
- Protocol: Physiological activity of the compounds of the present invention was assessed by measuring agonistic activity as well as binding activity for melanocortin receptors (MCR) according to methods A and B explained as follows. As one of the methods to measure MCR agonistic activity of the compound according to the present invention, the expression level of a marker gene (for example, luciferase) which increases proportionally according to the increase of cAMP content in the cell, was measured. […]
Reported EC50 values are given for each entry in this list.

Use the examples below as a reference point.
- Entry Smiles: "CN1CCN(C(=O)[C@@H]2C[C@H](N(C(=O)[C@@H]3CCCO3)C3CCC(C)(C)CC3)CN2C(=O)[C@@H]2CN(C(C)(C)C)C[C@H]2c2ccc(Cl)cc2)CC1"
  Recorded Value: "0.1 to 10 nM"
- Entry Smiles: "CN1CCN(C(=O)[C@@H]2C[C@H](N(C(=O)[C@@H]3CCCO3)[C@H]3CC[C@@H](C)CC3)CN2C(=O)[C@@H]2CN(c3ccc(Cl)nn3)C[C@H]2c2ccc(F)cc2F)CC1"
  Recorded Value: "10 to 100 nM"
- Entry Smiles: "CC(=O)N(C1CCC(C)(C)CC1)[C@H]1C[C@@H](C(=O)N2CCN(C)CC2)N(C(=O)[C@@H]2CN(C(C)(C)C)C[C@H]2c2ccc(Cl)cc2)C1"
  Recorded Value: "0.1 to 10 nM"
- Entry Smiles: "Cc1ccccc1N1C[C@@H](C(=O)N2C[C@@H](N(C(=O)[C@@H]3CCCO3)[C@H]3CC[C@@H](C)CC3)C[C@H]2C(=O)N2CCN(C)CC2)[C@H](c2ccc(Cl)cc2)C1"
  Recorded Value: "1000 to 10000 nM"
- Entry Smiles: "Cc1ccc(N2C[C@@H](C(=O)N3C[C@@H](N(C(=O)[C@@H]4CCCO4)C4CCC(C)(C)CC4)C[C@H]3C(=O)N3CCN(C)CC3)[C@H](c3ccc(Cl)cc3)C2)nn1"
  Recorded Value: "0.1 to 10 nM"

Query: EC50; subject: "CN1CCN(C(=O)[C@@H]2C[C@H](N(C(=O)[C@@H]3CCCO3)[C@H]3CC[C@@H](C)CC3)CN2C(=O)[C@@H]2CN(C3CC3)C[C@H]2c2ccc(Cl)cc2)CC1"
Result: 10 to 100 nM

Query: Continue with "CN1CCN(C(=O)[C@@H]2C[C@H](N(C(=O)C(C)(C)CO)C3CCC(C)(C)CC3)CN2C(=O)[C@@H]2CN(C(C)(C)C)C[C@H]2c2ccc(F)cc2F)CC1"
Result: 0.1 to 10 nM

Query: Now this one: "CN1CCN(C(=O)[C@H]2C[C@H](N(C(=O)[C@@H]3CCCO3)C3CCC(C)(C)CC3)CN2C(=O)[C@@H]2CN(C(C)(C)C)C[C@H]2c2ccc(F)cc2F)CC1"
Result: 0.1 to 10 nM

Query: Query "CN1CCN(C(=O)[C@@H]2C[C@H](N(C(=O)[C@@H]3CCCO3)[C@H]3CC[C@@H](C)CC3)CN2C(=O)[C@@H]2CN(C(C)(C)C)C[C@H]2c2ccc(F)cc2F)CC1" next
Result: 0.1 to 10 nM

Query: "CN1CCN(C(=O)[C@@H]2C[C@H](N(C(=O)C(C)(C)C)[C@H]3CC[C@@H](C)CC3)CN2C(=O)[C@@H]2CN(C(C)(C)C)C[C@H]2c2ccc(F)cc2F)CC1" , same question.
Result: 0.1 to 10 nM
